Data provenance: PubChem BioAssay AID1159580

# EXPERIMENT: chemical genetic growth profiling, strain panel (AID 1159580);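 further: tested at 20 µM; growth read once vehicle control cultures reached saturation at 30 °C; 1 = growth at the plate median or of vehicle wells; lower values mean less growth of the strain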
# STUDY_CONDITIONS: S. cerevisiae deletion strains, growth OD, locus YPL241C, strain CIN2
Out of some 5,500 compounds screened, about 2,000 (36%) were called active. Not shown: some 18% with an inconclusive outcome. No stated cut-off is given here; in the data, active means normalized growth mostly below about 0.91 (no sharp cut-off); inconclusive means no clear call, values can overlap the other calls; inactive means mostly above about 0.92. The list shows a part of the results.
Lab note: assign the record to one of active, inactive

# example entries with known answers
[in] Test call for this compound, please: CN(C)C(=O)Oc1cccc([N+](C)(C)C)c1
[out] inactive

[in] Test call for this compound, please: C[N+]1(C)CCN(c2ccccc2)CC1
[out] inactive

[in] Test call for this compound, please: Clc1cncc(Cl)c1N/N=C\C1CC2C=CC1C2 (stereo not given)
[out] inactive

[in] Test call for this compound, please: NCCCNCCCCNCCCN
[out] inactive

[in] Test call for this compound, please: NC(Cn1ccc(=O)c(O)c1)C(=O)O (stereo not given)
[out] inactive

Continuing:
[in] Test call for this compound, please: c1ccc(-c2csc(-c3ccncc3)n2)cc1
[out] active

[in] Test call for this compound, please: CC12CCC(O)CC1CCC1C2[C@H](O)CC2(C)C(C3=CC(=O)OC3)CCC12O (stereo not given in full)
[out] inactive

[in] Test call for this compound, please: Cc1onc(-c2c(Cl)cccc2Cl)c1NC(=O)O/N=C\c1ccc(N(C)C)cc1
[out] active

[in] Test call for this compound, please: CSc1sc(C#N)c2c1C(O)CCC2 (stereo not given)
[out] inactive

[in] Test call for this compound, please: OC(c1ccccc1)(c1ccccc1)c1ccncc1
[out] inactive

----------
# EXPERIMENT: chemical genetic growth profiling, strain panel (AID 1159580)
# STUDY_CONDITIONS: S. cerevisiae deletion strains, growth OD, locus YKR001C, strain vps1, hits give low values
The whole screen tested about 5,500 compounds, of which about 2,000 (36%) were called active. About 18% were inconclusive and are not listed. The list shows a part of the results.
MEASUREMENT_LABEL: normalized growth
Give a plain numeric answer without units written out.

[in] Please give the documented normalized growth of CCN1CCN(C(=O)NC(C(=O)N[C@@H]2C(=O)N3[C@@H]2SC(C)(C)[C@@H]3C(=O)O)c2ccccc2)C(=O)C1=O (stereo partly drawn)
[out] 1.01

[in] Please give the documented normalized growth of CC(C)CCCC(C)C1CCC2C3C[C@@H](O)[C@@]4(O)C[C@@H](O)CC[C@]4(C)C3CC[C@]12C (stereo partly drawn)
[out] 1.05

[in] Please give the documented normalized growth of CCOC(=O)NNc1nncc2ccccc12
[out] 0.983

[in] Please give the documented normalized growth of CC(=O)Oc1ccc(/C=C/c2cc(OC(C)=O)cc(OC(C)=O)c2)cc1
[out] 0.982

[in] Please give the documented normalized growth of NCCCCCCNS(=O)(=O)c1cccc2c(Cl)cccc12
[out] 0.983

[in] Please give the documented normalized growth of CC(C)CCCC(C)C1CCC2C3=CC[C@H]4C[C@@H](O)CC[C@]4(C)C3CC[C@@]21C (stereo partly drawn)
[out] 0.983

[in] Please give the documented normalized growth of CC(C)CC(NC(=O)OCC1c2ccccc2-c2ccccc21)C(=O)O (stereo not drawn)
[out] 1.06

----------
# EXPERIMENT: chemical genetic growth profiling, strain panel (AID 1159580)
# STUDY_CONDITIONS: S. cerevisiae deletion strains, growth OD, locus YOR061W, strain CKA2, hits give low values
The campaign covered roughly 5,500 compounds. About 2,000 (36%) were called active. Inconclusive results (about 18%) are left out. The list shows a part of the results.
MEASUREMENT_LABEL: normalized growth
Give a plain numeric answer without units written out.

These solved cases illustrate the format of a correct answer.
[in] Please give the documented normalized growth of CCCc1c(OCCCCc2nn[nH]n2)ccc(C(C)=O)c1O
[out] 1.01

[in] Please give the documented normalized growth of O=C(O)c1ccc(S(=O)(=O)N(Cl)Cl)cc1
[out] 1.01

[in] Please give the documented normalized growth of O=C(O)c1cccnc1
[out] 0.97

[in] Please give the documented normalized growth of CS(=O)(=O)c1ccc([C@@H](O)[C@@H](CO)NC(=O)C(Cl)Cl)cc1
[out] 0.944

Continuing:
[in] Please give the documented normalized growth of C=C(C)C1CCC(C)(O)C2CC3OC3(C)C2C1 (configuration not stated)
[out] 1

[in] Please give the documented normalized growth of Nc1ccc(S(=O)(=O)NC(=O)c2ccccc2)cc1
[out] 1

[in] Please give the documented normalized growth of Cc1cc(/C(N)=N\OC(=O)C(C)(C)C)cc(/C(N)=N\OC(=O)C(C)(C)C)c1
[out] 1

----------
# EXPERIMENT: chemical genetic growth profiling, strain panel (AID 1159580);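 further: tested at 20 µM; growth read once vehicle control cultures reached saturation at 30 °C; 1 = growth at the plate median or of vehicle wells; lower values mean less growth of the strain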
# STUDY_CONDITIONS: S. cerevisiae deletion strains, growth OD, locus YML120C, strain ndi1, hits give low values
In all, about 5,500 compounds went through this assay and about 2,000 (36%) were called active. Another 18% or so got no clear call; they are omitted. The list shows a part of the results.
MEASUREMENT_LABEL: normalized growth
Give a plain numeric answer without units written out.

[in] Please give the documented normalized growth of CCN(CC)CCOC(=O)C1(C2CCCCC2)CCCCC1
[out] 0.985

Continuing:
[in] Please give the documented normalized growth of CCC(C)[C@H]1O[C@]2(C=C[C@@H]1C)C[C@@H]1C[C@@H](C/C=C(\C)[C@@H](OC3C[C@H](OC)C(O[C@H]4C[C@H](OC)[C@@H](O)[C@H](C)O4)[C@H](C)O3)[C@@H](C)/C=C/C=C3\CO[C@@H]4[C@H](O)C(C)=C[C@@H](C(=O)O1)[C@]34O)O2 (some centres undefined)
[out] 0.955

[in] Please give the documented normalized growth of C[C@H](CCC(=O)O)[C@H]1CCC2C3C(=O)CC4CC(=O)CC[C@]4(C)C3CC(=O)[C@@]21C (some centres undefined)
[out] 0.967

[in] Please give the documented normalized growth of CO[C@H]1CC(O[C@@H]2/C(C)=C/C[C@@H]3C[C@@H](C[C@]4(CC[C@H](C)[C@@H](C5CCCCC5)O4)O3)OC(=O)[C@@H]3C=C(C)/C(=N\O)[C@H]4OC/C(=C\C=C\[C@@H]2C)[C@]43O)O[C@@H](C)C1O (some centres undefined)
[out] 0.995

----------
# EXPERIMENT: chemical genetic growth profiling, strain panel (AID 1159580);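 further: tested at 20 µM; growth read once vehicle control cultures reached saturation at 30 °C; 1 = growth at the plate median or of vehicle wells; lower values mean less growth of the strain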
# STUDY_CONDITIONS: S. cerevisiae deletion strains, growth OD, locus YPL209C, strain IPL1, hits give low values
About 2,000 (36%) of roughly 5,500 compounds were called active. Inconclusive results (about 18%) are left out. The list shows a part of the results.
MEASUREMENT_LABEL: normalized growth
Give a plain numeric answer without units written out.

These solved cases illustrate the format of a correct answer.
[in] Please give the documented normalized growth of Clc1ccc(SCc2ccsc2-c2ncns2)cc1
[out] 0.972

[in] Please give the documented normalized growth of CC(=O)c1ccc(Cl)c(N=Cc2cc(Cl)cc(Cl)c2O)c1
[out] 0.95

[in] Please give the documented normalized growth of CC(C)(C)c1cc(C(=O)Nc2ccc3c(c2)OCO3)n(Cc2ccc(F)cc2)n1
[out] 0.968

[in] Please give the documented normalized growth of O=[N+]([O-])c1cccc(C2CC(c3ccccc3)=Nc3ccccc3S2)c1 (configuration not stated)
[out] 0.957

Continuing:
[in] Please give the documented normalized growth of CCOC(=O)c1ccc(Cl)c(N=Cc2cc(Cl)cc(Cl)c2O)c1
[out] 0.954

[in] Please give the documented normalized growth of CC(C)(C)c1cc(C(=O)NNc2cccc(Cl)c2)n(Cc2ccccc2)n1
[out] 0.972

[in] Please give the documented normalized growth of Cc1c(C)c(C)c(C(=O)c2ccc(N=Cc3cc(Cl)cc(Cl)c3O)cc2)c(C)c1C
[out] 0.925

----------
# EXPERIMENT: chemical genetic growth profiling, strain panel (AID 1159580);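 further: tested at 20 µM; growth read once vehicle control cultures reached saturation at 30 °C; 1 = growth at the plate median or of vehicle wells; lower values mean less growth of the strain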
# STUDY_CONDITIONS: S. cerevisiae deletion strains, growth OD, locus YEL061C, strain CIN8, hits give low values
In all, about 5,500 compounds went through this assay and about 2,000 (36%) were called active. Not shown: some 18% with an inconclusive outcome. The list shows a part of the results.
MEASUREMENT_LABEL: normalized growth
Give a plain numeric answer without units written out.

These solved cases illustrate the format of a correct answer.
[in] Please give the documented normalized growth of CC(N=C(NC#N)Nc1ccncc1)C(C)(C)C (stereo unspecified)
[out] 1.01

[in] Please give the documented normalized growth of O=[N+]([O-])c1ccc(N2CCOCC2)cc1
[out] 0.969

[in] Please give the documented normalized growth of COc1ccc([C@@H]2CC(=O)c3c(O)cc(O[C@@H]4O[C@H](CO[C@H]5O[C@@H](C)[C@H](O)[C@@H](O)[C@H]5O)[C@@H](O)[C@H](O)[C@H]4O)cc3O2)cc1O
[out] 1

[in] Please give the documented normalized growth of C=C1c2cccc(O)c2C(O)=C2C(=O)[C@]3(O)C(O)=C(C(N)=O)C(=O)[C@@H](N(C)C)[C@@H]3[C@@H](O)[C@H]12
[out] 0.988

[in] Please give the documented normalized growth of CCOC(=O)c1ccc(NC(N)=S)cc1
[out] 0.998

[in] Please give the documented normalized growth of CCOC(=O)CSc1nc2cc(C(F)(F)F)cnc2n1C
[out] 0.993

[in] Please give the documented normalized growth of Nc1ccc2nonc2c1N
[out] 0.956

[in] Please give the documented normalized growth of Cc1cc(=O)[nH]c(=S)[nH]1
[out] 1

[in] Please give the documented normalized growth of CSc1sc(C#N)c2c1C(O)CCC2 (stereo unspecified)
[out] 0.993

[in] Please give the documented normalized growth of CCCc1cc(=O)[nH]c(=S)[nH]1
[out] 1.01

Continuing:
[in] Please give the documented normalized growth of NC(N)=NC(N)=Nc1ccc2c(c1)OCCO2
[out] 0.995
